test system: Plasmodium vinckei petteri; assay: Antimalarial activity against Plasmodium vinckei petteri 279BY infected in po dosed Swiss mouse assessed as reduction in parasitemia administered QD for 4 days measured on day 5; format: functional
Quantity Name: ED50 (mg/kg)

[[record]]
molecule = "CCSS/C(CCOP(=O)([O-])[O-])=C(/C)N(C=O)CCCCCCCCCCCCN(C=O)/C(C)=C(/CCOP(=O)([O-])[O-])SSCC.[Li+].[Li+].[Li+].[Li+]"
quantity_name = "ED50"
quantity_unit = "mg/kg"
qualifier = "="
test_result = 60

[[record]]
molecule = "Cc1c(CCO)sc[n+]1CCCCCCCCCCCC[n+]1csc(CCO)c1C.[Br-].[Br-] [ALBITIAZOLIUM BROMIDE]"
quantity_name = "ED50"
quantity_unit = "mg/kg"
qualifier = "="
test_result = 13

[[record]]
molecule = "Cc1c(CCOP(=O)(O)O)sc[n+]1CCCCCCCCCCCC[n+]1csc(CCOP(=O)(O)O)c1C"
quantity_name = "ED50"
quantity_unit = "mg/kg"
qualifier = "="
test_result = 34

[[record]]
molecule = "C/C1=C(\\CCOC(=O)[C@@H](N)C(C)C)SS/C(CCOC(=O)[C@@H](N)C(C)C)=C(/C)N(C=O)CCCCCCCCCCCCN1C=O.Cl"
quantity_name = "ED50"
quantity_unit = "mg/kg"
qualifier = "="
test_result = 37

[[record]]
molecule = "CCSS/C(CCO)=C(/C)N(C=O)CCCCCCCCCCCCN(C=O)/C(C)=C(/CCO)SSCC"
quantity_name = "ED50"
quantity_unit = "mg/kg"
qualifier = "="
test_result = 44

[[record]]
molecule = "CC(=O)OCC/C1=C(\\C)N(C=O)CCCCCCCCCCCCN(C=O)/C(C)=C(/CCOC(C)=O)SS1"
quantity_name = "ED50"
quantity_unit = "mg/kg"
qualifier = "="
test_result = 7.3

[[record]]
molecule = "C/C1=C(\\CCO)SS/C(CCO)=C(/C)N(C=O)CCCCCCCCCCCCN1C=O"
quantity_name = "ED50"
quantity_unit = "mg/kg"
qualifier = "="
test_result = 22

[[record]]
molecule = "CCCSS/C(CCO)=C(/C)N(C=O)CCCCCCCCCCCCN(C=O)/C(C)=C(/CCO)SSCCC"
quantity_name = "ED50"
quantity_unit = "mg/kg"
qualifier = ">"
test_result = 54

[[record]]
molecule = "C/C1=C(\\CCOC(=O)[C@@H](N)CCCCN)SS/C(CCOC(=O)[C@@H](N)CCCCN)=C(/C)N(C=O)CCCCCCCCCCCCN1C=O.Cl.Cl"
quantity_name = "ED50"
quantity_unit = "mg/kg"
qualifier = "="
test_result = 50

[[record]]
molecule = "C/C(=C(\\CCOP1(=O)OCc2ccccc2O1)SSCc1ccccc1)N(C=O)CCCCCCCCCCCCN(C=O)/C(C)=C(/CCOP1(=O)OCc2ccccc2O1)SSCc1ccccc1 (stereo unspecified)"
quantity_name = "ED50"
quantity_unit = "mg/kg"
qualifier = ">"
test_result = 90

[[record]]
molecule = "CSS/C(CCO)=C(/C)N(C=O)CCCCCCCCCCCCN(C=O)/C(C)=C(/CCO)SSC"
quantity_name = "ED50"
quantity_unit = "mg/kg"
qualifier = "="
test_result = 15

